target: Human ATX (Homo sapiens (Human), UniProt Q13822); test: Assay A: Biochemical ATX Assay; conditions: 5 nM recombinant ATX, 18:1 LPC substrate, 2 h at room temperature, formation of 18:1 LPA
QUANTITY_NAME: IC50 (nM)

CC(=O)N1CCN(c2ccc([C@@H](C)Nc3ccc(OCc4ccc(C(F)(F)F)nc4)nn3)cc2)CC1 [Example 1.2]    3.4
CC(=O)N1CCN(c2ccc(C3(Nc4ccc(OCc5ccc(C(F)(F)F)nc5)nn4)CC3)cc2C)CC1 [Example 1.13]    3.4
CC(=O)N1CCN(c2ccc(C3(Nc4ccc(OCc5ccc(C(F)(F)F)nc5)nn4)CC3)cn2)CC1 [Example 1.11]    4.4
CC(=O)N1CCN(c2ccc(C3(Nc4ccc(OCc5ccc(C(F)(F)F)nc5)nn4)CC3)cc2)CC1 [Example 1.1]    2.5
CC(=O)N1CCN(c2ccc(C3(Nc4ccc(OCc5ccc(C(F)(F)F)nc5)nn4)CC3)c(F)c2)CC1 [Example 1.12]    4.8

A. CC(=O)N(C)C1CCN(c2ccc(C3(Nc4ccc(OCc5ccc(C(F)F)nc5)nn4)CC3)cc2)CC1 [Example 1.4]
B. CC(=O)N1CCN(c2ccc([C@H](C)Nc3ccc(OCc4ccc(C(F)(F)F)nc4)nn3)cc2)CC1 [Example 1.6]
Pick one: A or B . Which one has the lower reported IC50? I would appreciate it if you answered with the label of your choice.
B

###

target: Human ATX (Homo sapiens (Human)); experiment: Assay A: Biochemical ATX Assay; details: 5 nM recombinant ATX, 18:1 LPC substrate, 2 h at room temperature, formation of 18:1 LPA
pIC50: −log10 of the molar value.
QUANTITY_NAME: pIC50

# annotated cases, reported pIC50 shown
CC(=O)N1CCN(c2ccc(C3(Nc4ccc(OCc5ccc(C(F)(F)F)nc5)nn4)CC3)cc2F)CC1 [Example 1.10]    8.62
CC(=O)N1CCN(c2ccc([C@@H](CO)Nc3ccc(OCc4ccc(C(F)F)nc4)nn3)cc2)CC1 [Example 1.8]    8.38
CC(=O)N(C)C1CCN(c2ccc(C3(Nc4ccc(OCc5ccc(C(F)F)nc5)nn4)CC3)cc2)C1 (stereo not drawn) [Example 1.7]    8.17
CC(=O)N1CCN(c2ccc(C3(Nc4ccc(OCc5ccc(C(F)F)nc5)nn4)CC3)cc2)CC1 [Example 1.5]    8.38

I. CC(=O)N1CCN(c2ccc(C(C)Nc3ccc(OCc4ccc(C(F)(F)F)nc4)nn3)cc2)CC1 (stereo not drawn) [Example 1.3]
II. CC(=O)N1CCN(c2ccc([C@@H](CO)Nc3ccc(OCc4ccc(C(F)(F)F)nc4)nn3)cc2)CC1 [Example 1.9]
Pick one: I or II . Which one has the lower reported pIC50? I would appreciate it if you answered with the label of your choice.
II

###

biological target: ATX in human whole blood (Homo sapiens (Human), UniProt Q13822); assay: Assay B: Whole-Blood ATX assay; settings: 1 h at 37° C., formation of 18:2 LPA
QUANTITY_NAME: IC50 (nM)

A. CC(=O)N1CCN(c2ccc(C3(Nc4ccc(OCc5ccc(C(F)(F)F)nc5)nn4)CC3)c(F)c2)CC1 [Example 1.12]
B. CC(=O)N1CCN(c2ccc(C3(Nc4ccc(OCc5ccc(C(F)(F)F)nc5)nn4)CC3)cc2F)CC1 [Example 1.10]
C. CC(=O)N1CCN(c2ccc([C@@H](C)Nc3ccc(OCc4ccc(C(F)(F)F)nc4)nn3)cc2)CC1 [Example 1.2]
Kindly sort the 3 molecules above from the smallest to the largest IC50. Reply format: the labels, ordered as requested.
C, B, A
